target: TGR5 (Homo sapiens, UniProt Q8TDU6); construct: host or cells: CHO cells; assay: TGR5 cAMP assay in CHO cells transfected with TGR5 (cAMP Hunter eXpress, Discover X); assay type: cell-based; details: 10 µM; % vs INT-767 10 µM as 100%
Sequence (Q8TDU6 whole entry): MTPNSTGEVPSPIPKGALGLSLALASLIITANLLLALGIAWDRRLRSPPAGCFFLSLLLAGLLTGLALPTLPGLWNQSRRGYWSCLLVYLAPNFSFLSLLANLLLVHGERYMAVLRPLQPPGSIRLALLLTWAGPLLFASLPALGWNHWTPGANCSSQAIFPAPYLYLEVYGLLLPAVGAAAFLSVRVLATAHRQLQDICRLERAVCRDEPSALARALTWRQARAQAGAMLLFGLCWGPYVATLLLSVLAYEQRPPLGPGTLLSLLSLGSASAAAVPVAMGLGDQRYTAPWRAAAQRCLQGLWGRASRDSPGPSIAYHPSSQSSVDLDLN
Hi there, I'd appreciate the recorded TGR5 Efficacy (%) (10 µM) for every entry that follows.
Provide only the numeric value, understood in %.

Query string: Return reported TGR5 Efficacy (%) (10 µM). Input compound: Cc1cnccc1C(=O)N(Cc1ccc(-c2ccc(N(C)C)cc2)cc1)c1cc(Cl)ccc1Cl [Compound 13q]
Result string: 75.2

Query string: Return reported TGR5 Efficacy (%) (10 µM). Input compound: Cc1cnccc1C(=O)N(Cc1ccc(-c2ccc(N(C)C)cc2)cc1)c1cc(Cl)cc(Cl)c1C [Compound 13r]
Result string: 91.9

Query string: Return reported TGR5 Efficacy (%) (10 µM). Input compound: Cc1cnccc1C(=O)N(Cc1ccc(-c2ccc(N(C)C)cc2)cc1)c1cc(Cl)cc(-c2cnn(C(C)C)c2)c1 [Compound 13o]
Result string: -1.5

###

Hi there, I'd appreciate the recorded FXR Efficacy (%) (1 µM) for every entry that follows.
Molecular target: FXR (Homo sapiens, UniProt Q96RI1)
Construct: host or cells: CHO cells
Sequence (Q96RI1 1-486): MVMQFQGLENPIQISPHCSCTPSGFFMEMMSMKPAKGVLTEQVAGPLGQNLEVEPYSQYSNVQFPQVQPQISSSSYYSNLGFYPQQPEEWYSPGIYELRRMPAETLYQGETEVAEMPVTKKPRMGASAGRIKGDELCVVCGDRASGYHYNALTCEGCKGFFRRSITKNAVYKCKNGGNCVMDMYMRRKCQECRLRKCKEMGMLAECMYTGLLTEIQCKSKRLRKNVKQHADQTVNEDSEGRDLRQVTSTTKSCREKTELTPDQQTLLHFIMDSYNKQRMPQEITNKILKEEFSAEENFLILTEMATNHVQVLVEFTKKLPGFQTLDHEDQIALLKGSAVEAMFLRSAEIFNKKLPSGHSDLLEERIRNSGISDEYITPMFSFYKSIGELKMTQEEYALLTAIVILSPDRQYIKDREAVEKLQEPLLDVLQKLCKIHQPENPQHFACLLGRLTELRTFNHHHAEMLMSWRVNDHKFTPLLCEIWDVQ
Assay: CHO cell-based FXR luciferase reporter assay (Indigo Biosciences)
Settings: 1 µM; % vs OCA 1 µM as 100%
Provide only the numeric value, understood in %.

Query string: Return reported FXR Efficacy (%) (1 µM). Input compound: Cc1cnccc1C(=O)N(CC12CCC(c3ccc4c(c3)OCO4)(CC1)CC2)c1cc(Cl)cc(Cl)c1 [Compound 20n]
Result string: 98.9

Query string: Return reported FXR Efficacy (%) (1 µM). Input compound: COc1ccc(C23CCC(CN(C(=O)c4ccncc4C)c4cc(F)cc(Cl)c4)(CC2)CC3)cc1C [Compound 20i]
Result string: 89.2

Query string: Return reported FXR Efficacy (%) (1 µM). Input compound: Cc1cnccc1C(=O)N(Cc1ccc(-c2ccc(N(C)C)cc2)cc1)c1cccc(-c2cnn(C(C)C)c2)c1F [Compound 13t]
Result string: 92.6

Query string: Return reported FXR Efficacy (%) (1 µM). Input compound: CN(C)c1ccc(-c2ccc(CN(C(=O)c3ccncc3Br)c3cc(Cl)cc(Cl)c3)cc2)cc1 [Compound 13y]
Result string: 51.6

Query string: Return reported FXR Efficacy (%) (1 µM). Input compound: Cc1cnccc1C(=O)N(Cc1ccc(-c2ccc(N(C)C)cc2)cc1)c1cc(Cl)ccc1Cl [Compound 13q]
Result string: 1.5

Query string: Return reported FXR Efficacy (%) (1 µM). Input compound: Cc1cnccc1C(=O)N(Cc1ccc(-c2ccccc2)cc1)c1cc(Cl)cc(Cl)c1 [Compound 13ah]
Result string: 17.7

Query string: Return reported FXR Efficacy (%) (1 µM). Input compound: COc1cnccc1C(=O)N(Cc1ccc(-c2ccc(N(C)C)cc2)cc1)c1cc(Cl)cc(Cl)c1 [Compound 13aa]
Result string: 68.6

Query string: Return reported FXR Efficacy (%) (1 µM). Input compound: CN(C)c1ccc(-c2ccc(CN(C(=O)c3ccccc3Cl)c3cc(Cl)cc(Cl)c3)cc2)cc1 [Compound 13ac]
Result string: 84.3

Query string: Return reported FXR Efficacy (%) (1 µM). Input compound: COc1cc(Cl)cc(N(CC23CCC(c4ccc(N(C)C)cc4)(CC2)CC3)C(=O)c2ccncc2C)c1 [Compound 20t]
Result string: 77.3
